The entries below are paired with their reported Mortality 7 Days.
- Test system: young adult male Swiss-Webster strain albino mice
- EXPERIMENT: Acute oral toxicity (ALD50)
- Format: in vivo
- ASSAY_CONDITIONS: 500 mg/kg oral, aqueous solution
- Experimental: The acute oral toxicity (ALD50) of several representative examples was determined as follows: Groups of 3 young adult male Swiss-Webster strain albino mice were fasted approximately 4 hours before medication and then medicated once orally by stomach tube.

The following compounds have reported results that may help.
[
  {
    "COMPOUND": "CCCCCCCNc1cc[n+](CCCCCCCCC[n+]2ccc(NCCCCCCC)cc2)cc1",
    "Mortality 7 Days": "1/3"
  },
  {
    "COMPOUND": "CCCCCCCNc1cc[n+](CCCCCCCCCC[n+]2ccc(NCCCCCCC)cc2)cc1",
    "Mortality 7 Days": "1/3"
  },
  {
    "COMPOUND": "CCCCC(CC)CNc1cc[n+](CCCCCCCCCC[n+]2ccc(NCC(CC)CCCC)cc2)cc1 (centres unmarked)",
    "Mortality 7 Days": "2/3"
  },
  {
    "COMPOUND": "CCCCCCCCNc1cc[n+](CCCCCCCC[n+]2ccc(NCCCCCCCC)cc2)cc1",
    "Mortality 7 Days": "1/3"
  }
]

Q: // lookup Mortality 7 Days for CCCCCCCNc1cc[n+](CCCCCCCC[n+]2ccc(NCCCCCCC)cc2)cc1
Ans: 1/3

Q: // lookup Mortality 7 Days for CCCCCCNc1cc[n+](CCCCCCCCCCCCCC[n+]2ccc(NCCCCCC)cc2)cc1
Ans: 2/3

Q: // lookup Mortality 7 Days for CCCCCCCNc1cc[n+](CCCCCCCCCCCC[n+]2ccc(NCCCCCCC)cc2)cc1
Ans: 3/3

Q: // lookup Mortality 7 Days for CCCCCCCCNc1cc[n+](CCCCCCCCCC[n+]2ccc(NCCCCCCCC)cc2)cc1 [10A,B]
Ans: 0/3
